pIC50: −log10 of the molar value.
Reported pIC50 on Collagenase 3 (Homo sapiens) for assorted compounds, compiled from publications.
property-name: pIC50

[[record]]
compound = "C=CCN1CCN(S(=O)(=O)c2cc(F)c(Oc3ccc(Cl)cc3)c(F)c2)[C@@H](C(=O)NO)C1"
property_name = "pIC50"
endpoint_result = "> 7.30"

[[record]]
compound = "O=C(NO)C1(S(=O)(=O)c2ccc(OCC#CCN3CCOCC3)cc2)CCN(Cc2ccc(Br)cc2)CC1"
property_name = "pIC50"
endpoint_result = 6.10

[[record]]
compound = "CC(O)CNC(=O)[C@@H](NC(=O)c1ccc(-c2ccc(C#N)cc2)o1)C1CCCCC1 (some centres unmarked)"
property_name = "pIC50"
endpoint_result = 6.77

[[record]]
compound = "O=C(NO)[C@H]1CN(S(=O)(=O)Cc2cc(Cl)cc(Cl)c2)CCN1S(=O)(=O)c1cc(F)c(Oc2ccc(Cl)cc2)c(F)c1"
property_name = "pIC50"
endpoint_result = "4.70 to 6.00"

[[record]]
compound = "O=C(NO)C1(S(=O)(=O)c2ccc(OCC#CCN3CCCCC3)cc2)CCN(Cc2ccc(Br)cc2)CC1"
property_name = "pIC50"
endpoint_result = 5.82

[[record]]
compound = "O=C(NO)[C@H]1CN(S(=O)(=O)CCN2CCCCC2)CCN1S(=O)(=O)c1cc(F)c(Oc2ccc(Cl)cc2)c(F)c1"
property_name = "pIC50"
endpoint_result = "> 7.30"

[[record]]
compound = "Cc1sc2nc(C(=O)NCc3ccc4c(c3)NC(=O)CO4)[nH]c(=O)c2c1C(=O)O"
property_name = "pIC50"
endpoint_result = "4.70 to 7.00"

[[record]]
compound = "CC1Oc2ccc(CNC(=O)c3nc4ccccc4c(=O)[nH]3)cc2NC1=O (centres unmarked)"
property_name = "pIC50"
endpoint_result = "> 7.00"

